Target or system Tyrosine-protein kinase JAK2 (Homo sapiens, UniProt O60674); metric pIC50; compiled from varied reports.
pIC50: −log10 of the molar value.

Give measured pIC50 for N#CCC1(n2cc(-c3ncnc4[nH]ccc34)cn2)CN(C2CCN(C(=O)OCC3CC3)CC2)C1 (Tyrosine-protein kinase JAK2 (Homo sapiens, UniProt O60674)).
7.00 to 7.30

Quote pIC50 with test system Tyrosine-protein kinase JAK2 (Homo sapiens, UniProt O60674) for Cc1n[nH]cc1-c1cn(C2(CC#N)CN(c3cc(F)c(C(=O)N[C@@H](C)C(F)(F)F)cc3F)C2)nc1CO
< 6.00

Recall the reported pIC50 of CO[C@H]1CNc2cc(Nc3ncc(C(N)=O)c(NC4C5CC6CC4CC(O)(C6)C5)n3)ccc2OC1 (stereo partly shown) when tested on Tyrosine-protein kinase JAK2 (Homo sapiens, UniProt O60674).
> 8.00

Print Tyrosine-protein kinase JAK2 (Homo sapiens, UniProt O60674) pIC50 for O=c1[nH]cccc1Nc1ncc(F)c(N[C@@H]2CCCN(c3nnc[nH]3)C2)n1 .
> 7.00

Jot down pIC50 (Tyrosine-protein kinase JAK2 (Homo sapiens, UniProt O60674)) of CN(c1ncnc2[nH]ccc12)C1CCC2(CC1)CCN(C(=O)c1ccc(C#N)c(F)c1)CC2 .
6.00 to 7.00

State measured pIC50 of the compound CC1CCNC(=O)c2ccc(c([N+](=O)[O-])c2)-c2ccnc(n2)Nc2ccc(OCC3CC3)c(c2)COC1 (stereo not shown) with Tyrosine-protein kinase JAK2 (Homo sapiens, UniProt O60674).
< 5.00

Provide measured pIC50 on Tyrosine-protein kinase JAK2 (Homo sapiens, UniProt O60674) for O=C(c1ccc(-c2ccnc(Nc3ccc(N4CCOCC4)cc3)n2)cc1)N1CCC[C@@H]1C(F)(F)F please.
8.07

###

IC50 values for UniProt:O60674, compiled from several publications.

Field: example entries. Status: answers known.
| compound | IC50 |
| --- | --- |
| N#CCC(=O)Nc1ccc(-c2ccnc(Nc3ccc(N4CCOCC4)cc3)n2)cc1C(F)(F)F | < 0.1 µM |
| CCn1cc(Nc2ncnc(-c3ccc(O[C@H]4CCN(C(=O)CO)C[C@H]4F)c(C#N)c3)n2)nn1 | ≥ 1 µM |
| COc1cc(Nc2ncnc(-c3ccc(O[C@H]4CCN(C(=O)CCO)C[C@H]4F)c(C#N)c3)n2)ccc1N1CCN(C2COC2)CC1 | 0.11 µM |
| CC(CC#N)n1cc(-c2nc(NCc3ccccc3)nc3ccsc23)cn1 (stereo not shown) | > 1 µM |
| Cc1nc2cnc3[nH]ccc3c2n1N1CCC(CC#N)CC1 | 0.00028 µM |

GET IC50 | system: UniProt:O60674 | item: N#Cc1cc(-c2ncnc(Nc3ccc(N4CCN(C5COC5)CC4)cc3)n2)ccc1N1CCC2(CCO2)CC1
0.301 µM

Name the value of IC50 reported for Cc1ccc(NC(=O)c2cc(NCCCn3ccnc3)cc(C(F)(F)F)c2)cc1-c1ccc2c(c1)[nH]c1ncncc12 when tested on UniProt:O60674.
≤ 0.5 µM

Send back UniProt:O60674 IC50 of O=C(CCl)Nc1cccc(-c2cnc3ccccc3n2)c1 only.
> 10 µM

Write down measured IC50 (UniProt:O60674) for this compound. CCC(=O)c1cnc(Nc2ccc(C(C)(C)NC)nn2)cc1Nc1cccc(-c2ncn(C)n2)c1OC
≥ 0.5 µM

Tell me its IC50 on UniProt:O60674: Cc1c[nH]c2nc(Nc3ccc4cn[nH]c4c3)nc(NC3CCC3)c12
0.1 to 1 µM

###

pIC50: −log10 of the molar value.
Values of pIC50 for Tyrosine-protein kinase JAK2 (Homo sapiens), collected from a number of published sources:

// solved cases for pIC50 follow
| molecule | result |
| --- | --- |
| CCOC(=O)NC[C@H]1CC[C@H](n2c(CC#N)nc3cnc4ccsc4c32)CC1 | ≥ 6.00 |
| C[C@H](O)C(=O)N1CC[C@H](Oc2ccc(-c3ncnc(Nc4ccc(-c5ccn(C)c(=O)c5)cc4)n3)cc2C#N)[C@H](F)C1 | ≤ 6.00 |
| O=C(O)Cn1cc(Nc2ncc3ccn(Cc4ccsc4)c3n2)cn1 | > 7.00 |
| CCC(=O)c1cnc(Nc2cnc(OCCn3ccnc3C)cn2)cc1Nc1cccc(-c2ncn(C)n2)c1OC | ≤ 6.30 |
| CN1CCC(c2ccc(-c3cc4nccn4c(-c4cnn(C(CC#N)C5CCCC5)c4)n3)cc2)CC1 (centres unmarked) | 7.00 to 8.00 |

Give Tyrosine-protein kinase JAK2 (Homo sapiens) pIC50 for the following molecule: CC(C)CC(=O)NC12CC(n3cnc4cnc5[nH]ccc5c43)(C1)C2
6.48

Please tell me the measured pIC50 for N#Cc1cc(-c2ncnc(Nc3ccc(N4CCN(C5COC5)CC4)cc3)n2)ccc1O[C@H]1CCN(C(=O)[C@@H]2COC(=O)N2)C[C@H]1F ; system: Tyrosine-protein kinase JAK2 (Homo sapiens).
6.63

Name the value of pIC50 reported for C[C@H](O)C(=O)N1CC(Oc2ccc(-c3ncnc(Nc4ccc(N5CCN(C6COC6)CC5)cc4)n3)cc2C#N)C(F)(F)C1 (some centres unmarked) when tested on Tyrosine-protein kinase JAK2 (Homo sapiens).
6.58

###

From various publications: pIC50 for Tyrosine-protein kinase JAK2 (Homo sapiens, UniProt O60674).
pIC50: −log10 of the molar value.

Name the value of pIC50 reported for CS(=O)(=O)N1CCC(N2CC(CC#N)(n3cc(-c4c(F)cnc5[nH]ccc45)cn3)C2)CC1 when tested on Tyrosine-protein kinase JAK2 (Homo sapiens, UniProt O60674).
≥ 8.00

Using Tyrosine-protein kinase JAK2 (Homo sapiens, UniProt O60674) as the test system, report measured pIC50 of N#CCC1(n2cc(-c3ncnc4[nH]ccc34)cn2)CN(C2CCN(C(=O)c3cnc4ccccc4c3)CC2)C1 .
≥ 8.00

Please tell me the measured pIC50 for CC(C)(O)c1cnc2cc(Nc3ncc(Cl)c(NC4CCN(c5ccc(C#N)cn5)CC4)n3)ccn12 ; system: Tyrosine-protein kinase JAK2 (Homo sapiens, UniProt O60674).
8.52

State pIC50 (Tyrosine-protein kinase JAK2 (Homo sapiens, UniProt O60674)) of Cn1cc(Nc2ncc(Cl)c(NC3CCC4(CCNC4)CC3)n2)cn1 (single isomer, unassigned) .
7.85

// fetch pIC50 for N#CCC1(n2cc(-c3nc(-c4cnn(C5COC5)c4)cc4ncc(Cl)n34)cn2)CN(CC(F)(F)F)C1 ; system: Tyrosine-protein kinase JAK2 (Homo sapiens, UniProt O60674)
7.00 to 8.00

Recall the reported pIC50 of CCS(=O)(=O)N1CC(CC#N)(n2cc(-c3nc(Nc4ccc(F)cc4)nc4ccsc34)cn2)C1 on Tyrosine-protein kinase JAK2 (Homo sapiens, UniProt O60674) and write it down.
> 7.30

Lab note: Tyrosine-protein kinase JAK2 (Homo sapiens, UniProt O60674) assay, enter pIC50 for CCC(CC)n1cc(-c2nc(-c3cnn(CC4(O)CCNCC4)c3)cn3nccc23)cn1 here
6.00 to 7.00

###

IC50 values for Tyrosine-protein kinase JAK2 (Homo sapiens, UniProt O60674), compiled from several publications.

Some molecules with recorded IC50:
| molecule | IC50 |
| --- | --- |
| CN(c1ccccc1CNc1nc(-c2cc(F)c(O)cc2CC(F)(F)F)cc2[nH]ncc12)S(C)(=O)=O | 6.3 nM |
| CN(c1ncnc2[nH]ccc12)C1CC2(C1)CN(C(=O)CCC#N)C2 | 100 to 1000 nM |
| Cn1cc(Nc2nc(-c3cnn(C4(CC#N)CC4)c3)c3sccc3n2)cn1 | < 50 nM |
| CN(c1ncnc2[nH]ccc12)N1CCC(NC(=O)CC#N)CC1 | 100 to 1000 nM |
| N#Cc1cc(-c2ncnc(Nc3ccc(N4CCN(C5COC5)CC4)cc3)n2)ccc1OCC1(F)COC1 | 110 nM |
| CN(c1ncnc2[nH]ccc12)C1CCC2(CC1)CCN(C(=O)c1cccnc1)CC2 | 100 to 1000 nM |
| CC1CCOCc2cc(ccc2OC2CCCC2)Nc2nccc(n2)-c2ccc(cc2N)C(=O)NC1 (stereo not shown) | 101 to 1000 nM |
| CC(C)(O)c1ccc(Nc2ncnc(-c3ccc(O[C@H]4CCN(C(=O)CO)C[C@H]4F)c(C#N)c3)n2)cn1 | ≥ 1000 nM |

Now turn to the next molecule.
// Input: CC[C@@H]1C[C@H](C#N)CN1n1cnc2cnc3[nH]ccc3c21 . Output its IC50 only.
61.3 nM

###

IC50 values for Tyrosine-protein kinase JAK2 (Homo sapiens), compiled from several publications.

Solved entries:
| compound | target | IC50 |
| --- | --- | --- |
| CCN(CC)C(=O)c1ccc(OC[C@H](O)CNc2ccnc(O)c2-c2nc3cc4c(cc3[nH]2)C(=O)N(C2CCN(C)CC2)C4=O)c(OC)c1 | Tyrosine-protein kinase JAK2 (Homo sapiens) | > 15000 nM |
| CCC(CC)n1cc(-c2nc(-c3cnn(CCS(=O)(=O)N(C)C)c3)cn3nccc23)cn1 | Tyrosine-protein kinase JAK2 (Homo sapiens) | 10 to 100 nM |

Specify reported IC50 for the compound shown: N#CCC(C1CCCC1)n1cc(-c2ccnc(Nc3ccc(NC(=O)CN4CCOCC4)cc3)n2)cn1 (racemic)
< 100 nM

Give recorded IC50. N#CCC1(n2cc(-c3nc(-c4cnn(C5COC5)c4)cc4nccn34)cn2)CN(CC(F)(F)C(F)(F)F)C1
10 to 100 nM

Identify IC50 associated with the compound CC(C)(O)c1nc2cc(Nc3ncc(Cl)c(NC4CCN(c5ccc(C#N)nn5)CC4)n3)ccn2n1
14 nM

Give IC50 for the following compound: CN1CCN(c2ccc(Nc3ncnc(-c4ccc(OC5CCOCC5)c(C#N)c4)n3)cc2)CC1
162 nM

In one line, give reported IC50 of the entry CC(=O)Nc1cc(Oc2ccc3nc(Nc4ccc(CN5CCC(N(C)C)C5)c(C(F)(F)F)c4)n4c3c2CCC4)ccn1 (centres unmarked) .
1770 nM

# return recorded IC50 for entry C[C@H](O)C(=O)N1CC[C@H](Oc2ccc(-c3ncnc(Nc4ccc(N5CCN(C)C[C@@H]5C)cc4)n3)cc2C#N)[C@H](F)C1
457 nM

Indicate the recorded IC50 value for this compound: Cc1cc(-c2ncnc(Nc3ccc(N4CCN(C5COC5)CC4)cc3)n2)cc(C#N)c1O[C@H]1CCN(C(=O)CO)C[C@H]1F
≥ 1000 nM
